System: MAP3K4
Details: concentration: 1 μM, replicates: in singlicate; n = 1;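 further: KINOMEscan kinase panel screen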
%Inh by entry:
RECORDED_ENDPOINT: %Inh (%)

In [3]: df
Out[3]:
                                smiles_repr  target_entity  recorded_endpoint  units  endpoint_result
0  C[C@@H](Oc1cc(-n2cnc3ccc(NC(=O)NC(C)(C)C)cc32)sc1C(N)=O)c1ccccc1Cl         MAP3K4               %Inh      %                0
1  O=C(Nc1n[nH]c2cc(-c3cccc(F)c3)ccc12)C1CC1         MAP3K4               %Inh      %               24
2  O=c1cc(N2CCOCC2)nc2n(Cc3cccc(C(F)(F)F)c3)ccn12         MAP3K4               %Inh      %               13
3  CCc1ccnc(/C=C/c2n[nH]c3cc(Sc4ccccc4C(=O)NC)ccc23)c1         MAP3K4               %Inh      %                4

----------
Tested on: CDK2
Conditions: concentration: 1 μM, replicates: in singlicate; n = 1
%Inh by entry:
RECORDED_ENDPOINT: %Inh (%)

                                    compound  target_entity  endpoint_result
 0  CCc1ccnc(/C=C/c2n[nH]c3cc(Sc4ccccc4C(=O)NC)ccc23)c1           CDK2                3
 1  CC(C)Oc1ccc2c(-c3ccnc(Nc4ccc(N5CCN(C)CC5)cc4)n3)cnn2n1           CDK2                0
 2  O=C(NCCCN1CCOCC1)c1cccc(Nc2nccc(Nc3ccc(Oc4ccccc4)cc3)n2)c1           CDK2                0
 3  Cl.Oc1cccc(Nc2ccnc3cc(-c4ccncc4)ccc23)c1           CDK2                0
 4  O=C(NCCNc1ccnc(Nc2ccc(F)cc2)n1)c1cc2ccccc2s1           CDK2                0
 5  COc1ccc(Nc2ncc(C#N)c(Nc3ccccc3C(N)=O)n2)cc1N1CCN(C)CC1.Cl           CDK2             96.3
 6   Cc1cccc(Cn2ccn3c(=O)cc(N4CCOCC4)nc23)c1           CDK2                8
 7  O=C(NOCC1CC1)c1ccc(F)c(F)c1Nc1ccc(I)cc1Cl           CDK2                0
 8  O=C(c1ccc(-c2cc(-c3c[nH]nc3-c3ccccn3)ccn2)cc1)N1CCOCC1           CDK2                0
 9                  CC(C)(C)n1cnc2c(N)ncnc21           CDK2                0
10  Nc1nc(-c2ccc3c(N)n[nH]c3c2)cc(N2CCCC2)n1           CDK2                0
11  COCCNC(=O)c1ccc(-c2cc(C(=O)NC3CC3)cc(F)c2C)cc1           CDK2               12
12  O=c1cc(N2CCOCC2)nc2n(Cc3cccc(C(F)(F)F)c3)ccn12           CDK2                0
13  Nc1nccc(-c2c(-c3ccc(F)cc3)ncn2C2CCN(CC(F)(F)F)CC2)n1           CDK2                0
14  N#Cc1c(N2CCOCC2)sc(-c2ccn[nH]2)c1-c1ccc(Cl)cc1           CDK2                0
15  O=c1cc(N2CCOCC2)nc2n(Cc3cccc(Cl)c3Cl)c(C3CC3)nn12           CDK2                0
16  COc1ccc(CNC(=O)NC2CCN(c3ccnc(Nc4ccc(OC)cc4)n3)C2)cc1 (centres unmarked)           CDK2                0
17  COc1ccc(Nc2nccc(N3CCC(NC(=O)Nc4cccc(C(C)=O)c4)C3)n2)cc1 (centres unmarked)           CDK2                0
18  NCCNS(=O)(=O)c1ccc(-c2ccnc3[nH]ccc23)cc1           CDK2                0
19                CCCCCc1nc2c(N)ncnc2n1CCCCC           CDK2                0
20  Fc1ccc(-c2ncn(CCCN3CCOCC3)c2-c2ccccn2)cc1           CDK2                0
21  Cl.Nc1ncnc2occ(-c3ccc(NC(=O)Nc4cc(C(F)(F)F)ccc4F)cc3)c12           CDK2               80
22  NS(=O)(=O)c1cccc(-c2ccc3nccc(-c4cccc(S(N)(=O)=O)c4)c3c2)c1           CDK2                0

----------
System: SGK3
Conditions: concentration: 1 μM, replicates: in singlicate; n = 1
RECORDED_ENDPOINT: %Inh (%)

>>> df
                                    molecule  recorded_endpoint  endpoint_result
 0  c1ccc(-c2cc(-c3c[nH]nc3-c3ccccn3)ccn2)cc1               %Inh                0
 1  NCC(NC(=O)c1cc(-c2cn[nH]c2)c(-c2ccnc3[nH]ccc23)s1)c1ccccc1.O=C(O)C(F)(F)F.O=C(O)C(F)(F)F (centres unmarked)               %Inh               81
 2  CN(C(=O)c1ccc(-c2cc(-c3c[nH]nc3-c3ccccn3)ccn2)cc1)C1CCOCC1               %Inh                0
 3  COc1ccc(S(=O)(=O)NC2CCN(c3cc(C)nc(Nc4cccc(C#N)c4)n3)CC2)cc1.O=C(O)C(F)(F)F               %Inh                4
 4  COc1ccc(Nc2ncc(C#N)c(Nc3ccccc3C(N)=O)n2)cc1N1CCN(C)CC1.Cl               %Inh             95.3
 5      CSc1ccc(-c2cc3ncnc(SCC(=O)O)c3s2)cc1               %Inh                6
 6  O=C(c1ccc(-c2cc(-c3c[nH]nc3-c3ccccn3)ccn2)cc1)N1CCOCC1               %Inh               16
 7  O=c1cc(N2CCOCC2)nc2n(Cc3cccc4ccccc34)ccn12               %Inh                0
 8  CN1c2ccc(CNc3ccc(F)cc3)cc2-c2c(cnn2C)S1(=O)=O               %Inh                0
 9  Nc1nc(-c2ccc3c(N)n[nH]c3c2)cc(N2CCCC2)n1               %Inh                8
10  Cc1nnc(-c2ccc(C)c(-c3ccc(C(=O)Nc4ccc(NS(C)(=O)=O)cc4)cc3)c2)o1               %Inh                4

----------
Test system: EPHB4
Conditions: concentration: 1 μM, replicates: in singlicate; n = 1
I'd appreciate it if you marked entries T when %Inh is lower than 10% and F when it is not.

In [3]: df
Out[3]:
                                    compound  label
 0  O=c1cc(N2CCOCC2)nc2n(Cc3cccc(C(F)(F)F)c3)ccn12      T
 1  O=C(NOCC1CC1)c1ccc(F)c(F)c1Nc1ccc(I)cc1Cl      T
 2  Cn1ccc2ncnc(Oc3ccc(NC(=O)Nc4ccncc4)c(Cl)c3)c21      T
 3  Cc1nnc(-c2ccc3occ(-c4ccc(C(C)O)cc4)c3c2)o1 (stereo not shown)      F
 4  O=C(Nc1n[nH]c2cc(-c3cccc(F)c3)ccc12)C1CC1      F
 5  CN(C(=O)c1ccc(-c2cc(-c3c[nH]nc3-c3ccccn3)ccn2)cc1)C1CCOCC1      T
 6  NS(=O)(=O)c1cccc(-c2ccc3ncc(N4CCOCC4)nc3c2)c1      F
 7  N#Cc1c(N2CCOCC2)sc(-c2ccn[nH]2)c1-c1ccc(Cl)cc1      F
 8  Cl.Nc1ncnc2occ(-c3ccc(NC(=O)Nc4cc(C(F)(F)F)ccc4F)cc3)c12      F
 9  Cl.Cl.Cl.Fc1ccc(-c2ncn(C3CCNCC3)c2-c2ccnc(Nc3ccccc3)n2)cc1      T
10  Cl.Oc1cccc(Nc2ccnc3cc(-c4ccncc4)ccc23)c1      F
11                  CC(C)(C)n1cnc2c(N)ncnc21      T
12  COCCNC(=O)c1ccc(-c2cc(C(=O)NC3CC3)cc(F)c2C)cc1      F
13  O=C(NCCNc1ccnc(Nc2ccc(F)cc2)n1)c1cc2ccccc2s1      T
14  N#Cc1ccc(-c2cc(-c3c[nH]nc3-c3ccccn3)ccn2)cc1      F
15  O=C1NC(=O)C(N2CCc3ccccc32)=C1c1cccc(Cl)c1      F

Recorded values, source paper PMC5540273.
